Biological target: T1, human ASGR-1 mutant construct H203 (human, UniProt P07306 1-291)
T1 construct: Arg/Glu scanning: non-arginine residues were changed to arginine; Transiently expressed on CHO-S cells
T1 sequence: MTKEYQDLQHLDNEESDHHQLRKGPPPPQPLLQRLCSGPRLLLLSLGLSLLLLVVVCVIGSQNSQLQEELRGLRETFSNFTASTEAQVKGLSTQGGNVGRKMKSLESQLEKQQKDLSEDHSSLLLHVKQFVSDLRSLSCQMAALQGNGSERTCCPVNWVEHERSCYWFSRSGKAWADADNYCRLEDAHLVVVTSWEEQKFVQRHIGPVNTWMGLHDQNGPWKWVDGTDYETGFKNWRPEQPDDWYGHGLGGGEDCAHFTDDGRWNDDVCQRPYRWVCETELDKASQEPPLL
Experiment: FACS ratio: H203 normalized value / wt normalized value

binder | Normalization to wt ASGR1 Binding
56E5 (antibody, V domains shown, mAb) VH: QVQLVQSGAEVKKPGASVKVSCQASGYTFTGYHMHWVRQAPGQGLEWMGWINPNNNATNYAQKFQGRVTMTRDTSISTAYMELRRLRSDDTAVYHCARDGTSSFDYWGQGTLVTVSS VL: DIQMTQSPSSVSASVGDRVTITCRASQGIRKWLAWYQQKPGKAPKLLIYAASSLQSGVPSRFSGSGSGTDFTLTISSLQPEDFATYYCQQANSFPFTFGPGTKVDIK | 0.962
52H2 (antibody, V domains shown, mAb) VH: EVQLLESGGGLVQPGGSLRLSCAASGFTFSRNAMSWVRQAPGMGLEWVSAISGRGGNTFYADSVKGRFTVSRDNSKNTLFLQMNSLRAEDTAVYYCAKNGREQWLDYWGQGTLVTVSS VL: DIQMTQSPSSVSASVGDRVTITCRASQNITNWLAWFQQKPGRAPKLLIYTTSSLQSGVPSRFSGSGSGTDFTLTISSLQPEDFATYCCQQTNSFPWTFGHGTKVEVK | 1.18
72G9 (antibody, V domains shown, mAb) VH: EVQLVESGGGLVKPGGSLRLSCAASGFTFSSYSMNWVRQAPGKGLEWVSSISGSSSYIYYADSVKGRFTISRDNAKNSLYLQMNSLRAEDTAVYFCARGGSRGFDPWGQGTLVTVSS VL: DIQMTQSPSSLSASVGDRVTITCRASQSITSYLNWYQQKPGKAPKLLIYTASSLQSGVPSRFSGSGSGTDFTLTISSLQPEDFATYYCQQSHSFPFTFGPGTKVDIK | 0.893
5E5 (antibody, V domains shown, mAb) VH: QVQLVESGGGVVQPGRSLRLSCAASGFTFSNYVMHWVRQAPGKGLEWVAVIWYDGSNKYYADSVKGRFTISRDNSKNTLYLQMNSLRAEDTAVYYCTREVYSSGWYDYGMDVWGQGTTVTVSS VL: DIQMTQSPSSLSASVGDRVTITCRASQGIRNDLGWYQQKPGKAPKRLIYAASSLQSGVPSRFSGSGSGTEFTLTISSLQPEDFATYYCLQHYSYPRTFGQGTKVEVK | 1.48
